Give measured kon for each item. Keep answers brief.
- TARGET ENTITY: alpha-synuclein fibrils, P37840
- EXPERIMENT SUMMARY: SPR, captured mAb
- RUN PARAMETERS: remark: other sources report otherwise

Problem: Need kon, item ACI-8033-1A12-Ab1 (antibody, V domains shown) VH: QVHLKQSGADLVRPGASVKLSCKASGYSFTDFYINWVKQTPGQGLEWIARIYPGNNNTFYNEKFKGKATLSAEKSSTTAYMQLSSLTSEDSAVYFCVVGYYGAWGQGTTLTVSS VL: DVVMTQTPLSLPVSLGDQASISCRSSQSLVHSNGNTHLHWYLQKPGQSPKLLIYKVSNRFSGVPDRFSGSGSGTDFTLKISRVEAEDLGFYFCSQSTHVPWTFGGGTKLEIK
Solution: 6660 M⁻¹ s⁻¹

Problem: Need kon, item ACI-7088-4317A4-Ab1 (antibody, V domains shown) VH: EVQLQQSGAELVRPGASVKLSCTASGFNIKDDYMHWVKQRPEQGLEWIGWIDPENGDTEYASKFQGKATMTADTSSNTAYLQLSSLTSEDTAVYYCKTWGTTQALFPYWGQGTLVTVSA VL: DIVMTQSQKFMYTSVGDRVSITCKASQNVGNAVGWYQQKAGQSPKLLIHSASNRYTGVPDRFTGTGSGTDFTLTINNMQSEDLADYFCQQYRSYPLTFGAGTKLELK
Solution: 337000 M⁻¹ s⁻¹

Problem: Need kon, item ACI-8033-17F5-Ab1 (antibody, V domains shown) VH: EVQLQQSGPELVKPGASVKISCKASGYTFTDYFMNWVKQSHGKSLEWIGDINPNIDVTNYNQKFKGKATLTVDKSSSTAYMELRSLTSEDSAVYYCARGRDYAMDFWGQGTSVTVSS VL: DIVMSQSPSSLAVSAGEKVTMSCKSSQSLLNSRTRKNYLAWYQQKPGQSPKLLIYWASTRESGVPDRFTGSGSGTDFTLTISSVQAEDLAVYYCKQSYDLWTFGGGTKLEIK
Solution: 13700 M⁻¹ s⁻¹

Problem: Need kon, item ACI-7067-1107G5-Ab2 (antibody, V domains shown) VH: QVQLQQPGTELVKPGASVKLSCKASGYTFTKYWMHWVKQRPGQGLEWIGNINPNNGDTNYNEKFKSKATLTVDKSSSTAYMQLSSLTSEDSAVYYCAIAMDYWGQGTSVTVSS VL: DIQMTQSPSSLSAFLGERVSLTCRASQDIGNNLNWFQQEPDGTIKRLIYATSSLDSGVPKRFSGSRSGSEYSLTISSLESEDFVDYYCLQFGSSPLTFGAGTKLELK
Solution: 345000 M⁻¹ s⁻¹

Problem: Need kon, item ACI-7067-1101C8-Ab2 (antibody, V domains shown) VH: EVQLVESGGGLVQPKGSLKLSCAASGFSFNIYAMNWVRQAPGKGLEWVARIRSKSNNYATYYADSVKDRFTISRADSESMLYLQMNNLKTEDTAMYYCVRVGLRFYAMDYWGQGTSVTVSS VL: DVLMTQTPLSLPVSLGDQASISCRSSQSIVHSNGNTYLEWYLQKPGQSPKLLIYKVSNRFSGVPDRFSGSGSGTDFTLKISRVEAEDLGVYYCFQGSQGPLTFGAGTKLELK
Solution: 176000 M⁻¹ s⁻¹
